Entry source: ChEMBL document CHEMBL1126627

# Assay: Half-life estimated in human plasma
# Assay type: ADME

{"Compound": "Cc1cn(C2C=CC(COP(=O)(O)OCC3C=CC(n4cc(C)c(=O)[nH]c4=O)O3)O2)c(=O)[nH]c1=O (configuration not stated)", "Display Unit": "h", "Value Comparator": ">", "half-life": 24}
{"Compound": "CCCCCCCCCCCCCCCCOC(=O)OCC1C=CC(n2cc(C)c(=O)[nH]c2=O)O1 (configuration not stated)", "Display Unit": "h", "Value Comparator": ">", "half-life": 24}
{"Compound": "CCCCCCCCCCCCCCCC(=O)OCC1C=CC(n2cc(C)c(=O)[nH]c2=O)O1 (configuration not stated)", "Display Unit": "h", "Value Comparator": "=", "half-life": 4}
{"Compound": "CCCCCCCCCCCCCCCCNC(=O)OCC1C=CC(n2cc(C)c(=O)[nH]c2=O)O1 (configuration not stated)", "Display Unit": "h", "Value Comparator": ">", "half-life": 24}
{"Compound": "CCCCCCCCCCCCCCCCOP(=O)(OCCC#N)OCC1C=CC(n2cc(C)c(=O)[nH]c2=O)O1 (configuration not stated)", "Display Unit": "h", "Value Comparator": "=", "half-life": 12}
{"Compound": "Cc1cn(C2C=CC(COP(=O)(OCCC#N)OCC3C=CC(n4cc(C)c(=O)[nH]c4=O)O3)O2)c(=O)[nH]c1=O (configuration not stated)", "Display Unit": "h", "Value Comparator": "=", "half-life": 12}
{"Compound": "CCCCCCCCCCCCCCCCOP(=O)(O)OCC1C=CC(n2cc(C)c(=O)[nH]c2=O)O1 (configuration not stated)", "Display Unit": "h", "Value Comparator": ">", "half-life": 24}

###

# Test Target: Human immunodeficiency virus type 1 reverse transcriptase (Human immunodeficiency virus 1) (UniProt Q72547)
# Assay: Selectivity index expressed as ratio of IC50 (CEM-C113) to EC50 from RT assay

{"Compound": "Cc1cn([C@H]2C=C[C@@H](CO)O2)c(=O)[nH]c1=O [STAVUDINE]", "Selectivity index": 200}
{"Compound": "CCCCCCCCCCCCCCCC(=O)OCC1C=CC(n2cc(C)c(=O)[nH]c2=O)O1 (stereo not given)", "Selectivity index": 50}
{"Compound": "Cc1cn(C2C=CC(COP(=O)(O)OCC3C=CC(n4cc(C)c(=O)[nH]c4=O)O3)O2)c(=O)[nH]c1=O (stereo not given)", "Selectivity index": 2000}
{"Compound": "CCCCCCCCCCCCCCCCOP(=O)(O)OCC1C=CC(n2cc(C)c(=O)[nH]c2=O)O1 (stereo not given)", "Selectivity index": 50}
{"Compound": "Cc1cn([C@H]2C[C@H](N=[N+]=[N-])[C@@H](CO)O2)c(=O)[nH]c1=O [ZIDOVUDINE]", "Selectivity index": 2000}

###

# Assay: Selectivity index expressed as ratio of IC50 (CEM-C113) to EC50 from MTT assay
# Assay type: functional
Reported Property: Selectivity index

{"Compound": "CCCCCCCCCCCCCCCCOC(=O)OCC1C=CC(n2cc(C)c(=O)[nH]c2=O)O1 (stereo not drawn)", "Reported Property": "Selectivity index", "Value Comparator": ">", "Observed Value": 66}
{"Compound": "Cc1cn(C2C=CC(COP(=O)(OCCC#N)OCC3C=CC(n4cc(C)c(=O)[nH]c4=O)O3)O2)c(=O)[nH]c1=O (stereo not drawn)", "Reported Property": "Selectivity index", "Value Comparator": "=", "Observed Value": 17}
{"Compound": "Cc1cn([C@H]2C[C@H](N=[N+]=[N-])[C@@H](CO)O2)c(=O)[nH]c1=O", "Reported Property": "Selectivity index", "Value Comparator": "=", "Observed Value": 3330}
{"Compound": "CCCCCCCCCCCCCCCCOP(=O)(O)OCC1C=CC(n2cc(C)c(=O)[nH]c2=O)O1 (stereo not drawn)", "Reported Property": "Selectivity index", "Value Comparator": "=", "Observed Value": 83}
{"Compound": "CCCCCCCCCCCCCCCCOP(=O)(OCCC#N)OCC1C=CC(n2cc(C)c(=O)[nH]c2=O)O1 (stereo not drawn)", "Reported Property": "Selectivity index", "Value Comparator": "=", "Observed Value": 4}
{"Compound": "Cc1cn([C@H]2C=C[C@@H](CO)O2)c(=O)[nH]c1=O", "Reported Property": "Selectivity index", "Value Comparator": "=", "Observed Value": 125}
{"Compound": "CCCCCCCCCCCCCCCC(=O)OCC1C=CC(n2cc(C)c(=O)[nH]c2=O)O1 (stereo not drawn)", "Reported Property": "Selectivity index", "Value Comparator": "=", "Observed Value": 40}
{"Compound": "Cc1cn(C2C=CC(COP(=O)(O)OCC3C=CC(n4cc(C)c(=O)[nH]c4=O)O3)O2)c(=O)[nH]c1=O (stereo not drawn)", "Reported Property": "Selectivity index", "Value Comparator": "=", "Observed Value": 5000}
